molecular target: full length recombinant Pim-2 protein (Homo sapiens); construct: by full length recombinant Pim-1, Pim-2, or Pim-3 protein; hexahistidine tag followed by a thrombin cleavage site (N); made in house; host or cells: Sf9 (baculovirus) or E. coli (pET28); experiment: Pim-2 enzyme assay (HTRF, phosphorylation of biotinylated-BAD (S112) peptide); type: biochemical; settings: read-out: Pim2_IC50
Sequence (Q9P1W9 whole entry): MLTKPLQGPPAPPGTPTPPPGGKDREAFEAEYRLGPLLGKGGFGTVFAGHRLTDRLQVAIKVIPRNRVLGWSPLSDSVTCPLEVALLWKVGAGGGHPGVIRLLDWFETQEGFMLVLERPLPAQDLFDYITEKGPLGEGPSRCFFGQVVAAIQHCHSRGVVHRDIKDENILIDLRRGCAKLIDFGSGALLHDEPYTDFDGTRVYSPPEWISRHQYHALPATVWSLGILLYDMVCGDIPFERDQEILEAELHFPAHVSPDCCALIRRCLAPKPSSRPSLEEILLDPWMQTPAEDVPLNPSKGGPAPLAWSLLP
Here the recorded pIC50 is given for each entry.
The value called pIC50 is obtained by taking minus log10 of the concentration in mol/L.

// below: answered compounds
CC[C@H]1CCNC[C@@H]1Oc1cncc(-c2n[nH]c3ccc(-c4c(F)cccc4F)cc23)n1 [Example 398]: 7.92
COc1cc(-c2c[nH]c3ccc(-c4c(F)cccc4F)cc23)nc(O[C@@H]2CCCNC2)n1 [Example 493]: 6.19
Fc1ccc(F)c(-c2ccc3[nH]nc(-c4cncc(O[C@H]5CNCCC56CC6)n4)c3c2)c1 [Example 442]: 8.40
Fc1cccc(F)c1-c1ccc2[nH]cc(-c3cncc(OC4CNCCC45CC5)n3)c2c1 (single isomer, unassigned) [Example 439]: 6.39
Nc1ccc(Oc2ncccc2-c2ccc3[nH]cc(-c4cncc(O[C@@H]5CCCNC5)n4)c3c2)cc1 [Example 337]: 6.23

Q: Data request, read-out pIC50, for COC(=O)c1ccc2[nH]cc(-c3cncc(N[C@@H]4CCCNC4)n3)c2c1 [Example 532]
A: 7.25

Q: Look at this compound and give its reported pIC50. CC(c1ccc2[nH]nc(-c3cncc(O[C@H]4CNCCC45CC5)n3)c2c1)C(F)(F)F (single isomer, unassigned) [Example 259]
A: 8.22

====

biological target: full length recombinant Pim-1 protein (Homo sapiens, UniProt P11309); construct: by full length recombinant Pim-1, Pim-2, or Pim-3 protein; hexahistidine tag followed by a thrombin cleavage site (N); made in house; host or cells: Sf9 (baculovirus) or E. coli (pET28); test: Pim-1 enzyme assay (HTRF, phosphorylation of biotinylated-BAD (S112) peptide); format: biochemical; conditions: read-out: Pim_1_IC50
Sequence (P11309 whole entry): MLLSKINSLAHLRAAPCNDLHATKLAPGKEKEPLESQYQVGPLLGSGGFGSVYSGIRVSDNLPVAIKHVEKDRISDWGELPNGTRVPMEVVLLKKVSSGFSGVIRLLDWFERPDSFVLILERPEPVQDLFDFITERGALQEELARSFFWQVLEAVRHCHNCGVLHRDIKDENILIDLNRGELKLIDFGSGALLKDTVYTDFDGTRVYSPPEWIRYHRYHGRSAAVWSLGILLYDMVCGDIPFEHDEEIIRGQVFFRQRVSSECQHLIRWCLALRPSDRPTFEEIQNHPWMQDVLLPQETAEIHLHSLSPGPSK
VALUE KIND: IC50 (nM)
Your answer is read as nM, so omit the unit and give the number.

Please review the entries below; each comes with its answer.
COc1ccc(OC)c(-c2ccc3[nH]cc(-c4cncc(O[C@@H]5CCCNC5)n4)c3c2)c1: 83
CC1(C)CNCCC1Oc1cncc(-c2n[nH]c3ccc(-c4c(F)cccc4F)cc23)n1 (single isomer, unassigned) [Example 432]: 20
N#Cc1cc(-c2ccc3[nH]cc(-c4cncc(O[C@@H]5CCCNC5)n4)c3c2)ccc1F: 34

Q: Look at this molecule and give its reported IC50. CC1CNCC(Oc2nc(O)cc(-c3n[nH]c4ccc(-c5c(F)cccc5F)cc34)n2)C1 (single isomer, unassigned) [Example 568]
A: 20

Q: Returns the measured IC50 for the input molecule. Input: N#Cc1ccccc1-c1ccc2[nH]nc(-c3cncc(O[C@H]4CNCCC45CC5)n3)c2c1
A: 1

Q: // query IC50 value for entry COC(=O)c1ccc2[nH]nc(-c3ccnc(N4CCC(N)CC4)n3)c2c1
A: 4

Q: Which IC50 value belongs to Cc1cccc(-c2ccc3[nH]cc(-c4cncc(O[C@@H]5CCCNC5)n4)c3c2)c1C ?
A: 54

Q: May I ask what IC50 has been recorded for Fc1cccc(F)c1-c1ccc2[nH]nc(-c3cncc(OC4CCNCC45CC5)n3)c2c1 (single isomer, unassigned) [Example 429] ?
A: 30

Where these numbers come from: patent US9090593B2
